# Experimental Target: ACKR3 (Homo sapiens)
# Construct: purchased Promega (in-house HiBiT-GPCR construct library, NanoBRET)
# Sequence (P25106 whole entry): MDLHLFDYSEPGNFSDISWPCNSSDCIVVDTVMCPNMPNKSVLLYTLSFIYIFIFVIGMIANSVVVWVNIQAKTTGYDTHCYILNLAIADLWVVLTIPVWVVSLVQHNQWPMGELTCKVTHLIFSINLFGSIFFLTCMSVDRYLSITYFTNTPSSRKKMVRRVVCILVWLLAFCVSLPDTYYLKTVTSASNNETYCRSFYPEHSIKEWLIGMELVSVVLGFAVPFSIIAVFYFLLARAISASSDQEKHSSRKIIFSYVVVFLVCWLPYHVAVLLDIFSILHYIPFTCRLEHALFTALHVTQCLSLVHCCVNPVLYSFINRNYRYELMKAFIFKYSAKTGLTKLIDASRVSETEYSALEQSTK
# Experiment: NanoBRET screen HiBiT-ACKR3 in HEK293
# Format: binding
# Test Settings: ACKR3; tracer 1μM
Metric Name: NanoBRET Fold Response
Respond with the number and no other words.

- Compound: "CC(C)N(CC[C@H](c1ccccc1)c1cc(CCNC(=O)c2ccc(CNC(=O)CCc3ccc4n3[B-](F)(F)[N+]3=C(c5ccc[nH]5)C=CC3=C4)cc2)ccc1O)C(C)C [Tolterodine-BZ-NB590]"
  NanoBRET Fold Response: 0.96
- Compound: "COc1ccccc1N1CCN(CCCCN2C(=O)c3ccc(CNC(=O)CCOCCNC(=O)c4ccc(CNC(=O)CCc5ccc6n5[B-](F)(F)[N+]5=C(c7ccc[nH]7)C=CC5=C6)cc4)cc3C2=O)CC1 [NAN-190-3-NB590]"
  NanoBRET Fold Response: 1.10
- Compound: "Cc1cc2c(s1)Nc1ccccc1N=C2N1CCN(CCCNC(=O)CCOCCOCCOCCOCCNC(=O)CCc2ccc3n2[B-](F)(F)[N+]2=C(c4ccc[nH]4)C=CC2=C3)CC1 [Olanzapine-a-2-NB590]"
  NanoBRET Fold Response: 0.83
- Compound: "Cc1nc2n(c(=O)c1CCN1CCC(c3noc4cc(F)ccc34)CC1)CCCC2OC(=O)NCCOCCOCCOCCOCCNC(=O)CCc1ccc2n1[B-](F)(F)[N+]1=C(c3ccc[nH]3)C=CC1=C2 (stereo not shown) [Risperidone-2-NB590]"
  NanoBRET Fold Response: 1.36
- Compound: "CC(C)N(CC[C@H](c1ccccc1)c1cc(CCNC(=O)CCOCCOCCOCCOCCNC(=O)CCc2ccc3n2[B-](F)(F)[N+]2=C(c4ccc[nH]4)C=CC2=C3)ccc1O)C(C)C [Tolterodine-2-NB590]"
  NanoBRET Fold Response: 1.00

Field NanoBRET Fold Response (system: ACKR3 (Homo sapiens)) for entry N#CN=C(NCCCOc1cccc(CN2CCCCC2)c1)NCCNC(=O)CCOCCOCCOCCOCCNC(=O)CCc1ccc2n1[B-](F)(F)[N+]1=C(c3ccc[nH]3)C=CC1=C2 [Aminopotentidine-2-NB590] = 1.08

Field NanoBRET Fold Response (system: ACKR3 (Homo sapiens)) for entry O=C(CCOCCOCCOCCOCCNC(=O)CCc1ccc2n1[B-](F)(F)[N+]1=C(c3ccc[nH]3)C=CC1=C2)NCCCN1CCN(C2=Nc3ccccc3Oc3ccc(Cl)cc32)CC1 [Loxapine-a-2-NB590] = 1.02
